- test target: UniProt:P05177
- measurement notes: Inhibition of CYP1A2 in human liver microsomes at 10 uM relative to control
- Type: ADME, Microsome
- details: liver microsomes
quantity kind: inhibition at 10 µM (%)

{"query smiles": "C[C@H]1CN(CC[C@H](O)C2CCCCC2)CC[C@@]1(C)c1cccc(O)c1", "unit abbrev": "%", "endpoint result": 14.5}

* * *

- test target: Voltage-gated inwardly rectifying potassium channel KCNH2 (Homo sapiens, UniProt Q12809)

{"query smiles": "NC(=O)c1ccc(Oc2ccc(CNCCc3ccccc3)cc2)nc1", "IC50 [µM]": 5.55}

* * *

- measurement notes: Half life in Sprague-Dawley rat plasma at 1 mg/kg, ip by LC-MS/MS analysis
- Format: ADME, organism-based

{"query smiles": "Cl.NC(=O)c1ccc(Oc2ccc(CNCCc3ccccc3)cc2)nc1", "unit abbrev": "h", "half-life": 1.52}

* * *

- test target: hERG (KCNH2) (Homo sapiens)
- Sequence (Q12809 whole entry): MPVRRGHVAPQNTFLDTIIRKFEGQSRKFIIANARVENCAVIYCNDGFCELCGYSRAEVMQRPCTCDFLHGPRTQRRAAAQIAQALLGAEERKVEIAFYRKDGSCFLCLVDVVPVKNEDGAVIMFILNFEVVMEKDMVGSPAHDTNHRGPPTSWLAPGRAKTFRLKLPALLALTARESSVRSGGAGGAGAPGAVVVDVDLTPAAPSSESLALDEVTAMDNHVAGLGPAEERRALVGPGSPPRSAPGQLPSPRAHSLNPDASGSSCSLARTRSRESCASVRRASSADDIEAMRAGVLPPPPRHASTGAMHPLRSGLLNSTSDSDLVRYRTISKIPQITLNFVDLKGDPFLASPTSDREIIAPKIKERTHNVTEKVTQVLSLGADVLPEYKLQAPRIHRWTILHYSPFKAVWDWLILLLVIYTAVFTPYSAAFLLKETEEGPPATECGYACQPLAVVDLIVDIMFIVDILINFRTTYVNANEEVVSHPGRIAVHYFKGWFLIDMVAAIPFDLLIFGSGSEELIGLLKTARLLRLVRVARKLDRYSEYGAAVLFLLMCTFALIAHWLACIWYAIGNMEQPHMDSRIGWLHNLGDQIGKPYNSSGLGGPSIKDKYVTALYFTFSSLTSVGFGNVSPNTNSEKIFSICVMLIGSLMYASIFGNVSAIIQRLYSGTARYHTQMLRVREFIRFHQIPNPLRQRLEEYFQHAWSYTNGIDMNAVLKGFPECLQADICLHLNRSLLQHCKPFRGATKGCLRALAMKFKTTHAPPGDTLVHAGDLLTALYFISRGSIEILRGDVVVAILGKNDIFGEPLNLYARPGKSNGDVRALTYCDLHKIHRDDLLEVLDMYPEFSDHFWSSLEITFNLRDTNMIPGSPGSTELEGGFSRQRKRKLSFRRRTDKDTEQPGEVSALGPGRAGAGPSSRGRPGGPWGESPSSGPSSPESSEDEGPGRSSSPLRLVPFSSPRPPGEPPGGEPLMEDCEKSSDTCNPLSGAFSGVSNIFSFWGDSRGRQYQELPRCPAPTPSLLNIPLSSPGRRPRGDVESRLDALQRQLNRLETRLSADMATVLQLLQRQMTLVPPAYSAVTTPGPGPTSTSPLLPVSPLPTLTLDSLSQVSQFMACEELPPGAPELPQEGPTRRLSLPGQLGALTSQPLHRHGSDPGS
- measurement notes: Inhibition of hERG channel assessed as maximal response
- Assay type: toxicity
- details: read-out: Imax

{"query smiles": "NC(=O)c1ccc(Oc2ccc(CNCCc3ccccc3)cc2)nc1", "Emax, %": 63.7}

* * *

- test target: Cytochrome P450 2C19 (Homo sapiens)
- Sequence (P33261 whole entry): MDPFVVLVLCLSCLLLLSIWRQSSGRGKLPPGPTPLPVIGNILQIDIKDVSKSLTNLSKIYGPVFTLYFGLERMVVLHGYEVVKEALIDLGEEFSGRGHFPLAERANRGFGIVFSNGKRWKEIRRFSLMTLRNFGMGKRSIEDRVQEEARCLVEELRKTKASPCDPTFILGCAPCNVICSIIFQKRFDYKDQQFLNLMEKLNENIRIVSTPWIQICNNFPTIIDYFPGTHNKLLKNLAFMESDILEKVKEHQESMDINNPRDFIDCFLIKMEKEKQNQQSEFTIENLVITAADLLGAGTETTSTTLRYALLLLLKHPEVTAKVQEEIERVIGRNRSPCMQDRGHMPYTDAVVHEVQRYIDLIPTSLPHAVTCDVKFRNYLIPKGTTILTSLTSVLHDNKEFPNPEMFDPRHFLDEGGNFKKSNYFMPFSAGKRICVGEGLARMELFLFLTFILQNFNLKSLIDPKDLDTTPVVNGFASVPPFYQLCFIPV
- measurement notes: Inhibition of CYP2C19 in human liver microsomes at 10 uM relative to control
- Format: ADME, Microsome
- details: microsomes, 10 µM

{"query smiles": "NC(=O)c1ccc(Oc2ccc(CNCCc3ccccc3)cc2)cc1", "inhibition (INH) [%]": 27.7}
{"query smiles": "NC(=O)c1ccc(Oc2ccc(CNCCc3ccccc3)cc2)nc1", "inhibition (INH) [%]": 11.6}
{"query smiles": "C=C1CC[C@@]2(O)[C@H]3Cc4ccc(O)c5c4[C@@]2(CCN3CC2CC2)[C@H]1O5", "inhibition (INH) [%]": 0}
{"query smiles": "NC(=O)c1ccc(Oc2ccc(CNCCc3ccccc3)cc2Cl)nc1", "inhibition (INH) [%]": 9.1}
{"query smiles": "COc1cc(CNCCc2ccccc2)ccc1Oc1ccc(C(N)=O)cn1", "inhibition (INH) [%]": 1.6}
{"query smiles": "COc1cc(CNCCC(C)C)ccc1Oc1ccc(C(N)=O)cn1", "inhibition (INH) [%]": 21.7}

* * *

- test target: Rho-associated protein kinase 1 (Homo sapiens)
- Sequence (Q13464 whole entry): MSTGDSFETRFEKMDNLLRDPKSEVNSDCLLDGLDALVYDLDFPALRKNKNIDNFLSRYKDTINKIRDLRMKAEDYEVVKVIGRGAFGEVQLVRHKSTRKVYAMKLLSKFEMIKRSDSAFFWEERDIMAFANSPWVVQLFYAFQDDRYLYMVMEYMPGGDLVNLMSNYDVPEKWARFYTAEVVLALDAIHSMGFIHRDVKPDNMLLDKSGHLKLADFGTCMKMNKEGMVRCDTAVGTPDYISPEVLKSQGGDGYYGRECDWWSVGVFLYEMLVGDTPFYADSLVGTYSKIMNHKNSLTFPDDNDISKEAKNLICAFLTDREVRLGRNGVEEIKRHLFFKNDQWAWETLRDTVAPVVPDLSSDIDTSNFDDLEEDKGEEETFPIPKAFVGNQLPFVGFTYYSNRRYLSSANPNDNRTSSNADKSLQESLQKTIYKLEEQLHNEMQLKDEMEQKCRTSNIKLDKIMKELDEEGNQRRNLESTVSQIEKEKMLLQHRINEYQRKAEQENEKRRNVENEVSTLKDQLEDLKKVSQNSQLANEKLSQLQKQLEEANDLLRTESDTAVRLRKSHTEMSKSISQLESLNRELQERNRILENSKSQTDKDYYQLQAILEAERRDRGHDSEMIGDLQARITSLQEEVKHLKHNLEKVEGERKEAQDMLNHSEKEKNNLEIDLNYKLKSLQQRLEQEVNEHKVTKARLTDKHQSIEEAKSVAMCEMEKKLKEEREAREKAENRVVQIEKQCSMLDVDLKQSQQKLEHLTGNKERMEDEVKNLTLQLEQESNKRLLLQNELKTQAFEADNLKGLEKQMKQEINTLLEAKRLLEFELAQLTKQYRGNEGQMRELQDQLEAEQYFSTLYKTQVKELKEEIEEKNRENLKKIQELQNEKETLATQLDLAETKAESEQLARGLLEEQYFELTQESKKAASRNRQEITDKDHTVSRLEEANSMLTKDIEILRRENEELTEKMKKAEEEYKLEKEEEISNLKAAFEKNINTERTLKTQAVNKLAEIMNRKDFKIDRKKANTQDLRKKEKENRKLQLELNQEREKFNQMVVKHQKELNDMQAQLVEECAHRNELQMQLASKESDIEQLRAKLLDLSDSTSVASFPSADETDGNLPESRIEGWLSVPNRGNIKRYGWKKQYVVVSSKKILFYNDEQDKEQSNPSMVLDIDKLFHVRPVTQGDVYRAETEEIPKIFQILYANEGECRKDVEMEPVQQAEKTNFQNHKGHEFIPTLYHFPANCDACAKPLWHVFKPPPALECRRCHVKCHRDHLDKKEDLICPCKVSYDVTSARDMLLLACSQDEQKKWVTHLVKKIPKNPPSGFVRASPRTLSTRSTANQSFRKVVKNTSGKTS
quantity kind: IC50 (µM)

{"query smiles": "NC(=O)c1ccc(Oc2ccc(CNCCc3ccccc3)cc2)nc1", "test target": "Rho-associated protein kinase 1 (Homo sapiens)", "unit abbrev": "µM", "endpoint result": 3.74}

* * *

- test target: UniProtKB P11712
- Sequence (P11712 whole entry): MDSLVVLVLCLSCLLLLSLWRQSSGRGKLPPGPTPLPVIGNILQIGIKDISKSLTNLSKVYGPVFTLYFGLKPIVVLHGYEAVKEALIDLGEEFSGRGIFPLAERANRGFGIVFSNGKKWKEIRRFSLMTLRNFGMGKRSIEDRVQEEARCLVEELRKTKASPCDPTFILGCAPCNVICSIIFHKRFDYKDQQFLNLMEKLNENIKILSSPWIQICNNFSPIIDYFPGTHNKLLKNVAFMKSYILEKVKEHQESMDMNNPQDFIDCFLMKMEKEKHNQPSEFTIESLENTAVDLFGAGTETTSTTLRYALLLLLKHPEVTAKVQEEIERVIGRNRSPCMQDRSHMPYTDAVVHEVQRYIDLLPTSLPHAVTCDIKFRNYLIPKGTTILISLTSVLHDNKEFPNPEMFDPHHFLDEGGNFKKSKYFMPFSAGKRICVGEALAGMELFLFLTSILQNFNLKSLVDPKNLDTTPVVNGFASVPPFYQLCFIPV
- measurement notes: Inhibition of CYP2C9 in human liver microsomes at 10 uM relative to control
- Format: ADME, Microsome
- details: microsomes, 10 µM

{"query smiles": "NC(=O)c1ccc(Oc2ccc(CNCCc3ccccc3)cc2Cl)nc1", "unit abbrev": "%", "inhibition (INH)": 4.8}
{"query smiles": "COc1cc(CNCCc2ccccc2)ccc1Oc1ccc(C(N)=O)cn1", "unit abbrev": "%", "inhibition (INH)": 13.1}
{"query smiles": "NC(=O)c1ccc(Oc2ccc(CNCCc3ccccc3)cc2)cc1", "unit abbrev": "%", "inhibition (INH)": 9.5}
{"query smiles": "COc1cc(CNCCC(C)C)ccc1Oc1ccc(C(N)=O)cn1", "unit abbrev": "%", "inhibition (INH)": 9.7}
{"query smiles": "C=C1CC[C@@]2(O)[C@H]3Cc4ccc(O)c5c4[C@@]2(CCN3CC2CC2)[C@H]1O5", "unit abbrev": "%", "inhibition (INH)": 0}

* * *

- test target: UniProt:P35372
- Sequence (P35372 whole entry): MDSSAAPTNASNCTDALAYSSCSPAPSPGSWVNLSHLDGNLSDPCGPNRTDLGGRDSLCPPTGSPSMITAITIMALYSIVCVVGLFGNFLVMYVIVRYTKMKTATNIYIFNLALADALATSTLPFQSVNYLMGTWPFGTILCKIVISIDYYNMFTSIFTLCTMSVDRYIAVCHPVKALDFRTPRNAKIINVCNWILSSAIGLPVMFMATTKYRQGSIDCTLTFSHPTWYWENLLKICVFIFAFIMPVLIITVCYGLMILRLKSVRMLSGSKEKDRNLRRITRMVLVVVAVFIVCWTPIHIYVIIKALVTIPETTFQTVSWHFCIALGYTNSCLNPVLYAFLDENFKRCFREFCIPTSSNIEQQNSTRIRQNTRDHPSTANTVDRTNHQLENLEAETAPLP
pIC50: −log10 of the molar value.
quantity kind: pIC50

{"compound": "C=CC[N+]1(C)CC[C@]23c4c5ccc(O)c4O[C@H]2C(=O)CC[C@@]3(O)[C@H]1C5 (some centres not stated) [NALOXONE METHIODIDE]", "quantity kind": "pIC50", "endpoint result": 6.20}
{"compound": "COc1cc(CNCCC2CCCCC2)ccc1Oc1ccc(C(N)=O)cn1", "quantity kind": "pIC50", "endpoint result": 8.50}
{"compound": "COc1cc(CNCCC(C)C)ccc1Oc1ccc(C(N)=O)cn1", "quantity kind": "pIC50", "endpoint result": 8.70}
{"compound": "NC(=O)c1ccc(Oc2ccc(CNCCc3ccccc3)cc2Cl)nc1", "quantity kind": "pIC50", "endpoint result": 8.90}
{"compound": "COc1cc(CNC2Cc3ccccc3C2)ccc1Oc1ccc(C(N)=O)cn1", "quantity kind": "pIC50", "endpoint result": 9.40}
{"compound": "NC(=O)c1ccc(Oc2ccc(CNCCc3ccccc3)cc2OCc2ccccc2)nc1", "quantity kind": "pIC50", "endpoint result": 8.50}
{"compound": "CC(C)(NC(=O)C1=C(O)[C@@H]2Oc3c(O)ccc4c3[C@@]23CCN(CC2CC2)[C@H](C4)[C@]3(O)C1)c1nc(-c2ccccc2)no1 [NALDEMEDINE]", "quantity kind": "pIC50", "endpoint result": 8.50}

* * *

Reported inhibition (INH) values follow for various compounds
- test target: UniProt P05177
- Sequence (P05177 whole entry): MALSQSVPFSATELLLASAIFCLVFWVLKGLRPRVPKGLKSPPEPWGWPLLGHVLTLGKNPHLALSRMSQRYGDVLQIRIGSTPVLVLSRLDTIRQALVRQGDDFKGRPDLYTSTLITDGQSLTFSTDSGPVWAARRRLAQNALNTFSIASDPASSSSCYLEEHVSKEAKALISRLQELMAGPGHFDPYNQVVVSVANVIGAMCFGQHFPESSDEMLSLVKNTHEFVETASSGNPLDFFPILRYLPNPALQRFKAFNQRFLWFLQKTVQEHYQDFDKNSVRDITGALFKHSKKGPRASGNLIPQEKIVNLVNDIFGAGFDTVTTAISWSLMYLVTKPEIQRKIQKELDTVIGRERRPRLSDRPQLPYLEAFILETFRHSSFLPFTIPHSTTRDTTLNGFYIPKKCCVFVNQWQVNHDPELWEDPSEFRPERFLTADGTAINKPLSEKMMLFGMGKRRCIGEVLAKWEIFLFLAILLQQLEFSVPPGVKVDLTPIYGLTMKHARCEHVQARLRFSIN
- measurement notes: Inhibition of CYP1A2 in human liver microsomes at 10 uM relative to control
- Type: ADME, Microsome
- details: microsomes, 10 µM
quantity kind: inhibition (INH)

{"query smiles": "COc1cc(CNCCc2ccccc2)ccc1Oc1ccc(C(N)=O)cn1", "quantity kind": "inhibition (INH)", "endpoint result": "1%"}
{"query smiles": "NC(=O)c1ccc(Oc2ccc(CNCCc3ccccc3)cc2)cc1", "quantity kind": "inhibition (INH)", "endpoint result": "0%"}
{"query smiles": "NC(=O)c1ccc(Oc2ccc(CNCCc3ccccc3)cc2)nc1", "quantity kind": "inhibition (INH)", "endpoint result": "0.6%"}
{"query smiles": "C=C1CC[C@@]2(O)[C@H]3Cc4ccc(O)c5c4[C@@]2(CCN3CC2CC2)[C@H]1O5", "quantity kind": "inhibition (INH)", "endpoint result": "0%"}
{"query smiles": "NC(=O)c1ccc(Oc2ccc(CNCCc3ccccc3)cc2Cl)nc1", "quantity kind": "inhibition (INH)", "endpoint result": "12.1%"}
{"query smiles": "COc1cc(CNCCC(C)C)ccc1Oc1ccc(C(N)=O)cn1", "quantity kind": "inhibition (INH)", "endpoint result": "0%"}

* * *

- measurement notes: Metabolic stability in mouse liver microsomes assessed as half life
- Type: ADME, Microsome
- details: microsomes
log10 of t1/2 by entry:
quantity kind: log10 of t1/2 (log10 of the value in min)

{"query smiles": "C=C1CC[C@@]2(O)[C@H]3Cc4ccc(O)c5c4[C@@]2(CCN3CC2CC2)[C@H]1O5", "endpoint result": 1.94}
{"query smiles": "NC(=O)c1ccc(Oc2ccc(CNCCc3ccccc3)cc2Cl)nc1", "endpoint result": 1.13}
{"query smiles": "NC(=O)c1ccc(Oc2ccc(CNCCc3ccccc3)cc2)nc1", "endpoint result": 1.80}
{"query smiles": "NC(=O)c1ccc(Oc2ccc(CNCCc3ccccc3)cc2)cc1", "endpoint result": 0.88}
{"query smiles": "COc1cc(CNCCc2ccccc2)ccc1Oc1ccc(C(N)=O)cn1", "endpoint result": 1.62}

* * *

# Delta-type opioid receptor (Homo sapiens): pIC50 values follow
# Sequence (P41143 whole entry): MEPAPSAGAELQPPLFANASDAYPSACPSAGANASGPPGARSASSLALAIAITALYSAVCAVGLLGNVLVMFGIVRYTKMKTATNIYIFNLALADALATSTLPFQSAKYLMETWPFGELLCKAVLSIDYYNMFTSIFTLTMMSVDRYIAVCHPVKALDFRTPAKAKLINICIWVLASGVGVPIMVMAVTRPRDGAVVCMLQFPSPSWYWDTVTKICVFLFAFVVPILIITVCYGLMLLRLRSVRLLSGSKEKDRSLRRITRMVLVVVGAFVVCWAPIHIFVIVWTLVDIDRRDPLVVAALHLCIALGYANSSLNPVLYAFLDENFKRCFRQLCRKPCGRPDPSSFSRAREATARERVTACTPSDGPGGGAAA
pIC50: −log10 of the molar value.

{"query smiles": "NC(=O)c1ccc(Oc2ccc(CNCCc3ccccc3)cc2OCc2ccccc2)nc1", "pIC50": 8.40}
{"query smiles": "COc1cc(CNC2Cc3ccccc3C2)ccc1Oc1ccc(C(N)=O)cn1", "pIC50": 9.20}
{"query smiles": "C[C@H]1CN(CC[C@H](O)C2CCCCC2)CC[C@@]1(C)c1cccc(O)c1", "pIC50": 8.40}
{"query smiles": "COc1cc(CNCCC(C)C)ccc1Oc1ccc(C(N)=O)cn1", "pIC50": 8.30}

These entries and their values trace back to ChEMBL document CHEMBL6182939.
